Give mean fluorescence intensity, times that with PE-labeled anti-mouse IgG only for every item shown.
- targetUnderTest: T1, human TROP-2 (hTROP-2) (human)
- T1 chain: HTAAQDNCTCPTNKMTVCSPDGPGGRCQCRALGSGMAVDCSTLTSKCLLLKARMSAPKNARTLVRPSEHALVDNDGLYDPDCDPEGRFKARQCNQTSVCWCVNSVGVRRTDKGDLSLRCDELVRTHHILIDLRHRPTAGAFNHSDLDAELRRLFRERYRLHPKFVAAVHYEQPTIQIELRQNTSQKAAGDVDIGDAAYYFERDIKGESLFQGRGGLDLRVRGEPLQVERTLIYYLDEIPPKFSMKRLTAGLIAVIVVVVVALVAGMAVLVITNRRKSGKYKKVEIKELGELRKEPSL
- experimentalDetails: FACS on PK-59 cells
Numbers only, in times.

{"columns": ["binder", "testResult"],
 "data": [
  ["anti-hTROP-2 monoclonal antibody T6-16 (antibody, V domains shown) VH: EVQLQQSGPELVKPGASVKISCKASGYTFTDYNMHWVKQSHGKNLEWIGYIYPYNGGTGYNQRFKSRATMTVDKSSSTAYMELRSLTSDDSAVYYCAREDYGSSPSYAMDYWGQGTSVIVSS VL: DVVMTQTPLSLPVSLGDQASISCRSSQSLVHGNGNTYLHWYLQKPGQSPKLLIYKVSNRFSGVPDRFSGSGSGTDFTLKISRVEAEDLGVYFCSQTTHVPTFGSGTKLEIK", 59],
  ["anti-hTROP-2 monoclonal antibody K5-70 (antibody, V domains shown) VH: QVQLQQPGAELVRPGASVKLSCKASGYTFTIYWINWVKQRPGQGLEWIGNIYPSDSYTNYNQKFKDKATLTVDKSSSTAYMQLSSPTSEDSAVYYCTRTSMADYWGQGTTLTVSS VL: DILLTQSPAILSVSPGERVSFSCRASQSIGTSIHWYQQRTNGSPRLLIKYASESISGIPSRFSGSGSGTDFTLSINSVESEDIADYYCQQSNSWPFTFGSGTKLEIK", 44],
  ["anti-hTROP-2 monoclonal antibody K5-107 (antibody, V domains shown) VH: QVQLQQPGSELVRPGASVKLSCKASGYTFTSYWMHWVKQRHGQGLEWIGNIYPGGGYTNYDEKFKSKGTLTVDTSSSTAYMHLSSLTSEDSAVYYCTRSSVFDYWGQGTTLTVSS VL: DILLTQSPAILSVSPGERVSFSCRASQNIGTSIHWFQQRTNGSPRLLIKYASESISGIPSRFSGSGSGTDFTLSINSVESEDIADYYCQQSNSWPFTFGSGTKLEIK", 89]
]}

Let me know recorded mean fluorescence intensity, times that with PE-labeled anti-mouse IgG only for anti-hTROP-2 monoclonal antibody K5-116-2-1 (antibody, V domains shown) VH: QVQLQQPGAELVRPGASVKLSCKASGYTFTSYWITWVKQRPGQGLEWIGNIYPSDSYTNYNQKFRDKATLTVDKSSSTAYMQLSSPTSEDSAVYYCSALFDYWGQGTTLTVSS VL: DILLTQSPAILSVSPGERVSFSCRASQSIGTSIHWYQQRTNGSPRLLIKYASESISGIPSRFSGSGSGTDFILSINSVESEDIADYYCQQSNSWPFTFGSGTKLEIK , thanks.
122
